- assay_text: Toxicity in Wistar rat assessed as effect on epithelium measured after 8 days by H and E staining based analysis
- assay_context: in vivo, 192 h, time 8 day
readout_name: Activity

COc1ccc2c(=O)c(/C=N/NC(=O)OCc3ccccc3)coc2c1 :: Non-Toxic
COc1ccc2occ(/C=N/NC(=O)OCc3ccccc3)c(=O)c2c1 :: Non-Toxic
O=C(N/N=C/c1coc2ccccc2c1=O)OCc1ccccc1 :: Non-Toxic
O=C([O-])Cc1ccccc1Nc1c(Cl)cccc1Cl.[Na+] [DICLOFENAC SODIUM] :: Non-Toxic

###

- tested_system: Prostaglandin G/H synthase 1 (Ovis aries, UniProt P05979)
- Sequence (P05979 whole entry): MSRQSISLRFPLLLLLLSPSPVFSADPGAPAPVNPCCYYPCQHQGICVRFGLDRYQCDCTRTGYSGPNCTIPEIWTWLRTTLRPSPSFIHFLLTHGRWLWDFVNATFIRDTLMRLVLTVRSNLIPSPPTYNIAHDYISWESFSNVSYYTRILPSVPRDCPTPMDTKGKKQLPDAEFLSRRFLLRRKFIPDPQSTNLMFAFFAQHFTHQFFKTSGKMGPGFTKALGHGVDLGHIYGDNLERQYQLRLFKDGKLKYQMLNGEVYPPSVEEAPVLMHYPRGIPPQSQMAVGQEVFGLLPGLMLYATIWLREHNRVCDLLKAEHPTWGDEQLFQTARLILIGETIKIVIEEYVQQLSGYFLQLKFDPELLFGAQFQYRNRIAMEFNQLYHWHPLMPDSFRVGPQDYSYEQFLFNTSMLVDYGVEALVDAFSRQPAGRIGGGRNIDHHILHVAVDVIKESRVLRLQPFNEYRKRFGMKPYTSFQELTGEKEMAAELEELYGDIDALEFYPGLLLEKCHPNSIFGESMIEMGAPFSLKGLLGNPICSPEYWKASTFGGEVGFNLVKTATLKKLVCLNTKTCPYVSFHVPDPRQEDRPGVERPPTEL
readout_name: pIC50
Please express pIC50 as -log10 of the molar concentration.

CN/N=C/c1coc2cc(OC)ccc2c1=O :: 5.44

Lookup: Quote Prostaglandin G/H synthase 1 (Ovis aries, UniProt P05979) pIC50 for entry CN/N=C/c1coc2ccccc2c1=O .
Found: 5.39

Lookup: Quote Prostaglandin G/H synthase 1 (Ovis aries, UniProt P05979) pIC50 for entry COC(=O)N/N=C/c1coc2cc(OC)ccc2c1=O .
Found: 5.22

Reference source for all entries: ChEMBL document CHEMBL5543076
